Origin of measurements: paper PMC6260593

# Test system: NF-κB-mediated luciferase activity
# assay-remarks: NF-κB-mediated luciferase assay in HEK293 cells
# Assay type: cell-based
# particulars: HEK293 cells transfected with NF-κB-Luc, PMA 0.1 μM, 24 h; read-out: Inhibitory activity [IC50] NF-κB-mediated luciferase activity
assay-endpoint: IC50
Phrase the answer as number then unit, nothing more needed.

Quick check: IC50 of Cc1ccc(S(=O)(=O)/C=C/C#N)cc1 [BAY11-7082, reference compound] ?
11.5 µM

###

# System: NF-κB-mediated luciferase activity
# assay-remarks: NF-κB-mediated luciferase assay in HEK293 cells
# Format: cell-based
# particulars: Homo sapiens; HEK293 cells transfected with NF-κB-Luc, PMA 0.1 μM, 24 h; read-out: Inhibitory activity [IC50] NF-κB-mediated luciferase activity
assay-endpoint: IC50

Form: Entry = C[C@@H]1O[C@@H](Oc2c(-c3ccc(O)cc3)oc3cc(O)cc(O)c3c2=O)[C@H](O)[C@H](O)[C@H]1O [Afzelin (3), kaempferol 3-O-α-L-rhamnopyranoside] | System = NF-κB-mediated luciferase activity | IC50 = ____
> 100 µM

Form: Entry = C[C@@H]1O[C@@H](Oc2cc(O)c3c(=O)c(O)c(-c4ccc(O)cc4)oc3c2)[C@H](O)[C@H](O)[C@H]1O [α-Rhamnoisorobin (2), kaempferol 7-O-α-L-rhamnopyranoside] | System = NF-κB-mediated luciferase activity | IC50 = ____
36.2 µM

Form: Entry = O=c1c(O)c(-c2ccc(O)cc2)oc2cc(O)cc(O)c12 [Kaempferol (1), kaempferol] | System = NF-κB-mediated luciferase activity | IC50 = ____
90.3 µM

Form: Entry = C[C@@H]1O[C@@H](Oc2cc(O)c3c(=O)c(O[C@@H]4O[C@@H](C)[C@H](O)[C@@H](O)[C@H]4O)c(-c4ccc(O)cc4)oc3c2)[C@H](O)[C@H](O)[C@H]1O [Kaempferitrin (4), kaempferol-3,7-O-α-dirhamnoside] | System = NF-κB-mediated luciferase activity | IC50 = ____
> 100 µM
